Measurement notes: PAMPA-GI
Format: in vitro ADME
Experimental setup: PAMPA; read-out: logPe PAMPA-GI (n = 9) (converted)
Assay readout: Papp at 4 h, 100 µM
Hi, when you answer, please include the unit after the number. Thanks!

Worked examples, 2 compounds total:
| Structure smiles | Papp at 4 h, 100 µM |
| --- | --- |
| O=C1C[C@H](O)[C@@H](O)Cc2ccc(O)c(c2)-c2cc(ccc2O)C[C@H]1O | 0.562 ×10⁻⁶ cm/s |
| O=C1CCc2ccc(O)c(c2)-c2cc(ccc2O)C[C@H](O)[C@H](O)[C@H]1O | 3.47 ×10⁻⁶ cm/s |

Next compound, please.
Param item = `O=C1CCc2ccc(O)c(c2)-c2cc(ccc2O)C[C@@H](O)[C@H](O)C1` ; retrieve measured Papp at 4 h, 100 µM.
6.03 ×10⁻⁶ cm/s

* * *

compounds and their reported concentration as compared to the initial value
Measurement notes: Storage stability in solutions and hornbeam bark extracts (UHPLC-DAD)
Format: physicochemical
Experimental setup: 12 weeks, 22 °C, SA (aqueous solution)
Marks after values point to notes of the source that are not given here.

Worked examples, 3 compounds total:
| Compound | Readout value |
| --- | --- |
| O=C1CCC(=O)C(O)Cc2ccc(O)c(c2)-c2cc(ccc2O)C1 (stereo not shown) [Compound 4] | 100.8 ± 1.1 ^a % |
| O=C1CCc2ccc(O)c(c2)-c2cc(ccc2O)C[C@@H](O)[C@H](O)C1 [Compound 3, giffonin X] | 96.2 ± 0.1 ^#bcd % |
| O=C1CCc2ccc(O)c(c2)-c2cc(ccc2O)C[C@H](O)[C@H](O)[C@H]1O [Compound 2, carpinontriol B] | 100.4 ± 1.1 ^a % |

Next compound, please.
Param item = O=C1C[C@H](O)[C@@H](O)Cc2ccc(O)c(c2)-c2cc(ccc2O)C[C@H]1O [Compound 1, carpinontriol A] ; retrieve measured concentration as compared to the initial value.
61.7 ± 5.7 ^#a %

* * *

Measurement notes: Storage stability in solutions and hornbeam bark extracts (UHPLC-DAD)
Type: physicochemical
Experimental setup: 12 weeks, 5 °C, SM (methanol solution)
Marks after values point to notes of the source that are not given here.
compounds and their reported concentration as compared to the initial value

| Compound | Readout value |
| --- | --- |
| O=C1CCc2ccc(O)c(c2)-c2cc(ccc2O)C[C@@H](O)[C@H](O)C1 | 99.0 ± 0.1 ^#bcd % |

Param item = `O=C1CCc2ccc(O)c(c2)-c2cc(ccc2O)C[C@H](O)[C@H](O)[C@H]1O` ; retrieve measured concentration as compared to the initial value.
99.4 ± 0.6 ^a %

Param item = `O=C1C[C@H](O)[C@@H](O)Cc2ccc(O)c(c2)-c2cc(ccc2O)C[C@H]1O` ; retrieve measured concentration as compared to the initial value.
90.8 ± 2.3 ^#def %

Param item = O=C1CCC(=O)C(O)Cc2ccc(O)c(c2)-c2cc(ccc2O)C1 (stereo not shown) ; retrieve measured concentration as compared to the initial value.
100.1 ± 0.6 ^ab %

* * *

Measurement notes: Storage stability in solutions and hornbeam bark extracts (UHPLC-DAD)
Format: physicochemical
Experimental setup: 23 weeks, −15 °C, SM (methanol solution)
Marks after values point to notes of the source that are not given here.
Assay readout: concentration as compared to the initial value

| Compound | Readout value |
| --- | --- |
| O=C1CCC(=O)C(O)Cc2ccc(O)c(c2)-c2cc(ccc2O)C1 (stereo not shown) | 99.8 ± 1.2 ^ab % |
| O=C1C[C@H](O)[C@@H](O)Cc2ccc(O)c(c2)-c2cc(ccc2O)C[C@H]1O | 88.9 ± 3.1 ^#dfi % |
| O=C1CCc2ccc(O)c(c2)-c2cc(ccc2O)C[C@H](O)[C@H](O)[C@H]1O | 99.1 ± 1.2 ^a % |

Next compound, please.
Param item = `O=C1CCc2ccc(O)c(c2)-c2cc(ccc2O)C[C@@H](O)[C@H](O)C1` ; retrieve measured concentration as compared to the initial value.
95.8 ± 0.1 ^#cd %
